Give measured pEC50 for each item. Keep answers brief.
# TARGET: T1, human PD1 expressed on a cell surface (human, UniProt Q15116 25-288)
# T1 construct: whole, on cells; also called hPD1
# T1 sequence (Q15116 25-288): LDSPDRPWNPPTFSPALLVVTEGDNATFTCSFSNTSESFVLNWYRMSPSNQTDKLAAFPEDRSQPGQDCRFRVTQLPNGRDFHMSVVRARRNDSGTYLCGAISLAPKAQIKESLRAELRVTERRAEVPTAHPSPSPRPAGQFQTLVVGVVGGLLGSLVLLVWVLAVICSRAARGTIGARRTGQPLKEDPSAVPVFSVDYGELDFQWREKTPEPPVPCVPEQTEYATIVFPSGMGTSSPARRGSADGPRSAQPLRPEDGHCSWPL
# PROTOCOL DETAILS: flow cytometry on OKT3-activated human T cells, CD4+ cells
Numbers only, as −log10 of the molar value.

Sample answers from the record:
anti-hPD1 antibody #10 (antibody, human IgG4, V domains shown, also called Anti-hPD1 #10; Anti-PD1 #10) VH: QVQLVQSGAEVKKPGASVKVSCKASGYTFTSYWMHWVRQAPGQGLEWMGEIDPFDSYTNYNQKFKGRVTMTIDKSTNTVYMELSSLGSEDTAVYYCARPGYTYGGMDFWGQGTLVTVSS VL: DIVMTQSPDSLAVSLGERATINCRSSQSLFISGNQKNYLAWYQQKPGQPPKLLIYGASTRDSGVPDRFSGSGSGTDFTLTISSLQAEDVAVYYCQNNHYYPYTFGGGTKVEIK; 8.97
anti-hPD1 antibody #6 (antibody, human IgG4, V domains shown, also called Anti-hPD1 #6; Anti-PD1 #6) VH: QVQLVQSGAEVKKPGASVKVSCKASGYTFTNYWIHWVRQAPGQGLEWMGEIDPYDSYTNYNQKFKGRVTMTGDTSTSTVYMELSSLTSEDTAVYYCARPGYTYGGMDFWGQGTLVTVSS VL: DIQMTQSPSSLSASVGDRVTITCRSSQSLFNSGNQKNYLAWYQQKPGKPPKLLIYGASTRESGVPARFSGSGSGTDFTLTISSLQPEDVATYYCQNDHYYPYTFGGGTKVEIK; 9.18
anti-hPD1 antibody #1 (antibody, V domains shown, also called Anti-hPD1 #1; Anti-PD1 #1) VH: QVQLVQSGAEVKKPGASVKVSCKASGYTFTNYWIHWVRQAPGQGLEWMGEIDPYDSYTNYNQKFKGRVTMTVDKSTSTVYMELSSLRSEDTAVYYCARPGFTYGGMDFWGQGTLVTVSS VL: DIQMTQSPSSLSASVGDRVTITCKSSQSLFNSGNQKNYLAWYQQKPGKVPKLLIYGASTRDSGVPYRFSGSGSGTDFTLTISSLQPEDVATYYCQNDHYYPYTFGGGTKVEIKR; 9.04
anti-hPD1 antibody #11 (antibody, human IgG4, V domains shown, also called Anti-hPD1 #11) VH: QVQLVQSGAEVKKPGASVKVSCKASGYTFTSYWIHWVRQAPGQGLEWMGEIDPSDSYTNYNQKFKGRVTMTGDTSTNTVYMELSSLTSEDTAVYYCARPGYTYGGMDFWGQGTLVTVSS VL: DIVMTQSPDSLAVSLGERATISCRSSQSLFISGNQKNYLAWYQQKPGQPPKLLIYGASTRDSGVPDRFSGSGSGTDFTLTISSLQAEDVAVYYCQNNHYYPYTFGGGTKVEIK; 7.47

Here is the next item to consider.
Dear colleague, I am looking for the recorded pEC50 of the following binder: anti-hPD1 antibody #8 (antibody, human IgG4, V domains shown, also called Anti-hPD1 #8) VH: QVQLVQSGAEVKKPGASVKVSCKASGYTFTNYWIHWVRQAPGQGLEWMGEIDPYDSYTNYNQKFKGRVTMTIDTSTSTVYMELSSLRSEDTAVYYCARPGNTYGGMDFWGQGTLVTVSS VL: DIVMTQSPDSLAVSLGERATINCKSSQSLFISGNQKNYLAWYQQKPGQPPKLLIYGASTRDSGVPDRFSGSGSGTDFTLTISSLQAEDVAVYYCQNNHYYPYTFGGGTKVEIK 9.19

Attribution: patent US20190276542A1
